target: MDR1 (P-glycoprotein) (Homo sapiens, UniProt P08183); construct: host or cells: MDCK (MDR1-MDCK; wild-type MDCK as comparator); assay: MDR1-MDCK permeability and efflux assay (Papp, efflux ratio, effective efflux ratio); type: in vitro ADME; details: dog, MDCK-MDR1, pH 7.4, ER(MDR1-MDCK)/ER(wild-type MDCK); read-out: EER (Effective Efflux Ratio)
Sequence (P08183 whole entry): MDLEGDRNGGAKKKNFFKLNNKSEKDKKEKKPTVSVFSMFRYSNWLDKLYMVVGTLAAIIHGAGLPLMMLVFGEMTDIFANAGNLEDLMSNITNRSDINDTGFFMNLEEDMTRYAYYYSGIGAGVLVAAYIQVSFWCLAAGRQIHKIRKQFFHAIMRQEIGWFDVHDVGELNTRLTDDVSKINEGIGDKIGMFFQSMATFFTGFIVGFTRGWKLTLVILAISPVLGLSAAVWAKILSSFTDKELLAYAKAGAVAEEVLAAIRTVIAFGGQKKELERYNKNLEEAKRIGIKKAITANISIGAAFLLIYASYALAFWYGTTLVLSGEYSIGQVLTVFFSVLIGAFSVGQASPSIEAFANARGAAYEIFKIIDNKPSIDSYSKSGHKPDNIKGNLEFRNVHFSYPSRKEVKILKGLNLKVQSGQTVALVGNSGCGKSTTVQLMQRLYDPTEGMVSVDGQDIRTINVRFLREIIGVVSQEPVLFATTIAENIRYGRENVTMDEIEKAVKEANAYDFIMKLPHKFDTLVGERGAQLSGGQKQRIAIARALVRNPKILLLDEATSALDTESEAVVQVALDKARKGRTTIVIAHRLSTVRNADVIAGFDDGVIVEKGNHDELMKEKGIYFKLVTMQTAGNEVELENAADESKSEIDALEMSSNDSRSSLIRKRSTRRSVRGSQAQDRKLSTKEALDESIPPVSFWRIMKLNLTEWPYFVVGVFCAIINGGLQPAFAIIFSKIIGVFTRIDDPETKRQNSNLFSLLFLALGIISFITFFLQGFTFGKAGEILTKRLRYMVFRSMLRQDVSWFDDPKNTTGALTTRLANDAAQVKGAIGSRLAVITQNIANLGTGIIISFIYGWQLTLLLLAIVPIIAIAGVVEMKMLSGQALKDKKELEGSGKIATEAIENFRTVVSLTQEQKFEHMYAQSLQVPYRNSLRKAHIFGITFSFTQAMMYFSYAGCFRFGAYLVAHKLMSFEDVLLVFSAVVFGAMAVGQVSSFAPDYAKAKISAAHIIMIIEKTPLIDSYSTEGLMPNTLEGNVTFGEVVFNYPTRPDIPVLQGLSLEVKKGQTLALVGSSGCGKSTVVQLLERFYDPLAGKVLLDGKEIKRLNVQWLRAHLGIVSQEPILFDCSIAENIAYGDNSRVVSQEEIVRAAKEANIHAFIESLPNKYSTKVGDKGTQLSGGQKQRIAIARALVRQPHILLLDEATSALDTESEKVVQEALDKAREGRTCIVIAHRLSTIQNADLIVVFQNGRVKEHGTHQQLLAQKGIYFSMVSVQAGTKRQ
For each of the compounds below, state its efflux ratio at 1 h, 10 μM.

Here are 3 compounds together with their reported answers.
CC1COc2cc(F)ccc2N1C(=O)N1CC2(C1)CN(c1noc3ccccc13)C2 (stereo not shown) [4-3] :: < 1
O=C(N1CC2(C1)CN(c1cc(F)ccn1)C2)N1CCOc2cc(Cl)ccc21 [1-70] :: < 1
CC1COc2cc(F)ccc2N1C(=O)N1CC2(C1)CN(c1ccc(F)cn1)C2 (single isomer, unassigned) [12-1-A] :: 1 to 2

Now consider the entry below.
Input: Given the compound CC1COc2cc(Cl)ccc2N1C(=O)N1CC2(C1)CN(c1noc3ccccc13)C2 (stereo not shown) [21-1] , what is its reported efflux ratio at 1 h, 10 μM?
Output: 2 to 3

---

Provide the reported efflux ratio at 1 h, 10 μM of each item.
biological target: MDR1 (P-glycoprotein) (Homo sapiens, UniProt P08183); construct: host or cells: MDCK (MDR1-MDCK; wild-type MDCK as comparator); assay: MDR1-MDCK permeability and efflux assay (Papp, efflux ratio, effective efflux ratio); format: in vitro ADME; conditions: dog, MDCK-MDR1, pH 7.4, Papp B>A/Papp A>B, MDR1-MDCK cells; read-out: ER MDR1 (Efflux Ratio)

Some solved cases for reference:
CC1COc2cc(Cl)ccc2N1C(=O)N1CC2(C1)CN(c1ccncn1)C2 (stereo not shown) :: < 1
Cc1ccnc(N2CC3(CN(C(=O)N4c5ccc(Cl)cc5OCC4C)C3)C2)c1 (stereo not shown) :: < 1
O=C(N1CC2(C1)CN(c1ccc(F)cn1)C2)N1CCC(O)c2cc(Cl)ccc21 (single isomer, unassigned) [13-1-A] :: > 3

Next molecule, efflux ratio at 1 h, 10 μM to be filled in.
Input: Param item = O=C(N1CC2(C1)CN(c1cnccn1)C2)N1CCC(O)c2cc(Cl)ccc21 (single isomer, unassigned) ; retrieve measured efflux ratio at 1 h, 10 μM.
Output: > 3

---

target: human Arginine Vasopressin Receptor V2 (AVPR2) (Homo sapiens, UniProt P30518); test: Vasopressin V2 receptor antagonist assay (TR-FRET cAMP, 1321N1 cells)
Sequence (P30518 whole entry): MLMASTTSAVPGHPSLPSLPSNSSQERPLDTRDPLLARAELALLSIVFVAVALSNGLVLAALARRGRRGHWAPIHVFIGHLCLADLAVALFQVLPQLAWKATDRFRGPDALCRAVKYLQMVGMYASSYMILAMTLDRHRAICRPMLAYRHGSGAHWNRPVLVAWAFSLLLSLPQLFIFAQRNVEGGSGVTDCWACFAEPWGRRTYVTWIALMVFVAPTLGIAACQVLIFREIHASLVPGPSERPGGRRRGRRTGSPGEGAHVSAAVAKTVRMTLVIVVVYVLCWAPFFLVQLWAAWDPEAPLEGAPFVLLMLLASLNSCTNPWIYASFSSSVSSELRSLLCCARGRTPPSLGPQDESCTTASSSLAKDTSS
Assignment: determine reported IC50 for the given molecules.

Some solved entries appear below for comparison.
CC1COc2cc(Cl)ccc2N1C(=O)N1CC2(C1)CN(c1noc3cccnc13)C2 (centres unmarked) [18-3] :: 100 to 500 nM
CC1COc2cc(Cl)ccc2N1C(=O)N1CC2(C1)CN(c1ncccn1)C2 (single isomer, unassigned) :: ≥ 1000 nM
COc1ccnc(N2CC3(CN(C(=O)N4c5ccc(Cl)cc5OCC4C)C3)C2)c1 (single isomer, unassigned) [20-8-B] :: < 100 nM
O=C(N1CC2(C1)CN(c1ccc(F)cn1)C2)N1CCC(O)c2cc(Cl)ccc21 (single isomer, unassigned) [13-1-A] :: ≥ 1000 nM
CC1COc2cc(Cl)ccc2N1C(=O)N1CC2(C1)CN(c1cnccn1)C2 (single isomer, unassigned) :: < 100 nM
O=C(N1CC2(C1)CN(c1cc(F)ccn1)C2)N1CCc2cc(Cl)ccc21 :: ≥ 1000 nM
O=C(N1CC2(C1)CN(c1cnc(F)cn1)C2)N1CCOc2cc(Cl)ccc21 :: ≥ 1000 nM

Input: Suppose we examine the molecule N#Cc1cccc(N2CC3(CN(C(=O)N4CCOc5cc(Cl)ccc54)C3)C2)n1 ; what IC50 value has been reported?
Output: ≥ 1000 nM

---

For each of the compounds below, state its IC50.
target: human Arginine Vasopressin Receptor V2 (AVPR2) (Homo sapiens); assay: Vasopressin V2 receptor antagonist assay (TR-FRET cAMP, 1321N1 cells)

As a guide, the following entries are already answered.
CC1COc2cc(Cl)ccc2N1C(=O)N1CC2(C1)CN(c1cccnn1)C2 (single isomer, unassigned) [9-1-B] :: ≥ 1000 nM
Cc1nc(N2CC3(CN(C(=O)N4CCOc5cc(Cl)ccc54)C3)C2)ccc1F :: 500 to 1000 nM

Fill in IC50 for each of the 3 compounds listed.
1. COc1ccnc(N2CC3(CN(C(=O)N4CCOc5cc(Cl)ccc54)C3)C2)c1
2. CC1COc2cc(Cl)ccc2N1C(=O)N1CC2(C1)CN(c1ncccc1F)C2 (single isomer, unassigned)
3. O=C(N1CC2(C1)CN(c1ncccn1)C2)N1CCOc2cc(Cl)ccc21

Output:
1: ≥ 1000 nM; 2: < 100 nM; 3: ≥ 1000 nM

---

assay: Wild-type MDCK permeability and efflux assay (Papp, efflux ratio); format: in vitro ADME; conditions: dog, pH 7.4; A->B, wild-type MDCK cells
Would you mind telling me the reported Papp A→B at 1 h, 10 μM of each entry?

CC1COc2cc(Cl)ccc2N1C(=O)N1CC2(C1)CN(c1cccnn1)C2 (single isomer, unassigned) :: > 20 ×10⁻⁶ cm/s
CC1COc2cc(Cl)ccc2N1C(=O)N1CC2(C1)CN(c1nccc(C(F)(F)F)n1)C2 (stereo not shown) :: 10 to 20 ×10⁻⁶ cm/s
CC1COc2cc(Cl)ccc2N1C(=O)N1CC2(C1)CN(c1noc3cccnc13)C2 (stereo not shown) [18-3] :: > 20 ×10⁻⁶ cm/s

Now for another entry.
Input: Requested read-out: Papp A→B at 1 h, 10 μM. Entry: CC1COc2cc(Cl)ccc2N1C(=O)N1CC2(C1)CN(c1ccncn1)C2 (stereo not shown)
Output: > 20 ×10⁻⁶ cm/s

---

Answer each item with its documented pIC50.
target: human Arginine Vasopressin Receptor 1b (AVPR1b) (Homo sapiens); assay: Vasopressin V1b receptor antagonist assay (FLIPR calcium, CHO-AVPR1b cells)
Sequence (P47901 whole entry): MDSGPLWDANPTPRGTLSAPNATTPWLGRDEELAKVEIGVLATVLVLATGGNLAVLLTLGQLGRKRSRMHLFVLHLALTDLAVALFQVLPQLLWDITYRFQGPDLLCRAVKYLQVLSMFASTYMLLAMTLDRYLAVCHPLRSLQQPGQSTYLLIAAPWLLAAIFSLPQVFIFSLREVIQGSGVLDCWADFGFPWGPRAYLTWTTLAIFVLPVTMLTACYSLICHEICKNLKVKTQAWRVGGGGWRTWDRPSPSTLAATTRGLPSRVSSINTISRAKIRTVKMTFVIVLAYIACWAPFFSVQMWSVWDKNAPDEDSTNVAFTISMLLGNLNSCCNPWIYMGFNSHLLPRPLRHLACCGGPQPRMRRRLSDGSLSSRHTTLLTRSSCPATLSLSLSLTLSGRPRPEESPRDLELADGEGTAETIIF
pIC50: −log10 of the molar value.

Look over these answered cases.
Cc1cnnc(N2CC3(CN(C(=O)N4c5ccc(Cl)cc5OCC4C)C3)C2)c1 (stereo not shown) [21-4] :: ≤ 6.00
CC1COc2cc(Cl)ccc2N1C(=O)N1CC2(C1)CN(c1ccc(F)cn1)C2 (single isomer, unassigned) [1-73-B] :: ≤ 6.00
Cc1ccnc(N2CC3(CN(C(=O)N4CCOc5cc(Cl)ccc54)C3)C2)c1 [1-14] :: ≤ 6.00
Cc1ccnc(N2CC3(CN(C(=O)N4c5ccc(F)cc5OCC4C)C3)C2)c1 (single isomer, unassigned) [20-4-B] :: ≤ 6.00
CC1COc2cc(Cl)ccc2N1C(=O)N1CC2(C1)CN(c1ncc(F)cn1)C2 (single isomer, unassigned) [18-2-B] :: ≤ 6.00
CC1COc2cc(Cl)c(F)cc2N1C(=O)N1CC2(C1)CN(c1cccnn1)C2 (stereo not shown) [19-4] :: ≤ 6.00
CC1COc2cc(Cl)ccc2N1C(=O)N1CC2(C1)CN(c1ccc(F)cn1)C2 (single isomer, unassigned) [1-73-A] :: ≤ 6.00
CC1COc2cc(F)ccc2N1C(=O)N1CC2(C1)CN(c1noc3ccccc13)C2 (single isomer, unassigned) [4-3-B] :: ≤ 6.00
COc1ccc(N2CC3(CN(C(=O)N4CCOc5cc(Cl)ccc54)C3)C2)nc1 [1-68] :: ≤ 6.00
CC1COc2cc(F)c(F)cc2N1C(=O)N1CC2(C1)CN(c1cccnn1)C2 (single isomer, unassigned) [19-3-B] :: ≤ 6.00

For every record below, what is its pIC50?
1. CC1COc2cc(F)ccc2N1C(=O)N1CC2(C1)CN(c1ccccn1)C2 (single isomer, unassigned) [1-66-B]
2. O=C(N1CC2(C1)CN(c1cccc(F)n1)C2)N1CCOc2cc(Cl)ccc21 [1-69]
3. O=C(N1CC2(C1)CN(c1ncc(F)cn1)C2)N1CCOc2cc(Cl)ccc21 [4-2]
4. CC1COc2cc(F)c(F)cc2N1C(=O)N1CC2(C1)CN(c1ccc(F)cn1)C2 (stereo not shown) [19-5]

Output:
1. ≤ 6.00
2. ≤ 6.00
3. ≤ 6.00
4. ≤ 6.00

Look at each compound and report its pIC50.
1. CC1CN(C(=O)N2CC3(C2)CN(c2ccc(F)cn2)C3)c2ccc(F)cc2O1 (single isomer, unassigned) [9-4-B]
2. O=C(N1CC2(C1)CN(c1cccc(F)n1)C2)N1CCc2cc(Cl)ccc21 [1-78]

Output:
1: ≤ 6.00; 2: ≤ 6.00

---

molecular target: human Oxytocin Receptor (hOTR) (Homo sapiens, UniProt P30559); experiment: Oxytocin receptor (OTR) antagonist assay (FLIPR calcium, CHEM-1-hOTR cells)
Sequence (P30559 whole entry): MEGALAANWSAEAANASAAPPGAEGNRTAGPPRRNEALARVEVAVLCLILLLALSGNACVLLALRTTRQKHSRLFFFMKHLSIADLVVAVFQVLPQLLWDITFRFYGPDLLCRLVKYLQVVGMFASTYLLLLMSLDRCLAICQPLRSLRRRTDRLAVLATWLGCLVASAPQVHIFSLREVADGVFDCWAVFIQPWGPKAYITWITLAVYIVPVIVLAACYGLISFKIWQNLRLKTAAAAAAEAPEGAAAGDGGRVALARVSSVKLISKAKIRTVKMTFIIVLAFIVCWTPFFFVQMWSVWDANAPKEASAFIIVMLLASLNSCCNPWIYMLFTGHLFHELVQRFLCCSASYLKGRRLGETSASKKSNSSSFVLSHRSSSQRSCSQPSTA
pIC50: −log10 of the molar value.
Kindly supply the reported pIC50 values for the records listed here.

Below: 4 compounds and their reported pIC50.
Cc1ccnc(N2CC3(CN(C(=O)N4c5ccc(F)cc5OCC4C)C3)C2)c1 (single isomer, unassigned) [20-4-B] :: 6.00 to 6.30
CC1COc2cc(Cl)ccc2N1C(=O)N1CC2(C1)CN(c1nn(C)c3ncccc13)C2 (single isomer, unassigned) [20-15-B] :: 6.00 to 6.30
CCC1COc2cc(Cl)ccc2N1C(=O)N1CC2(C1)CN(c1ccc(F)cn1)C2 (single isomer, unassigned) [1-55-B] :: > 7.00
O=C(N1CC2(C1)CN(c1ccc(F)cn1)C2)N1CCC(O)c2cc(Cl)ccc21 (centres unmarked) [13-1] :: ≤ 6.00

Input: I am curious: what pIC50 value has been reported for Cc1cnnc(N2CC3(CN(C(=O)N4c5ccc(Cl)cc5OCC4C)C3)C2)c1 (centres unmarked) [21-4] ?
Output: 6.00 to 6.30

The measurements presented in this section are drawn from patent US12152038B2.
